This collection of values is drawn from ChEMBL document CHEMBL1201862.

system: T47D; test: NCI tumour cell line growth inhibition, 48 h
Calls of active or inactive are those of the source. No stated cut-off is given here; in the data, active = GI50 up to about 1.1 µM and inactive = higher.
PROPERTY NAME: GI50

CC(C)[C@@H]1ON1C(C)c1ccccc1 (some centres undefined)    > 100 µM (inactive)
CN(C)CCc1ccnc2nc(-c3ccc4ccccc4c3)cn12    34.9 µM (inactive)
OCCSCC(O)Cn1cnc2c(O)nc(Nc3ccccc3)nc21 (centres undefined)    > 100 µM (inactive)
CN(C(=O)c1ccc(Cl)cc1)C(=S)N1CCN(c2ccccc2)CC1    > 100 µM (inactive)
CCN(CC)C(=S)SC [METHYLDIETHYL CARBAMODITHIOATE]    > 100 µM (inactive)
C=C1CC2(CCCC3(CC(=C)C(=O)O3)C2(C)C)OC1=O (centres undefined)    3.33 µM (inactive)
CC(C)CCCC(C)[C@H]1CCC2[C@@H]3CCC4Cc5nc6c(nc5C[C@]4(C)C3CC[C@@]21C)CC1CC[C@@H]2C(CC[C@@]3(C)C2CC[C@@H]3C(C)CCCC(C)C)[C@@]1(C)C6 (some centres undefined)    > 100 µM (inactive)
Cc1cn([C@H]2C[C@@H]3[C@@H](COC(CCl)N3O)O2)c(=O)[nH]c1=O (some centres undefined)    > 100 µM (inactive)

Ask: May I ask what GI50 has been recorded for CCOC(=O)N(CC)c1c(C(F)(F)F)cc(-c2ccccc2)[nH]c1=O ?
Reply: 32.7 µM (inactive)

Ask: Quick one: C=Cc1ccccc1C1(O)C=CC(OC)(OC)C=C1
Reply: 22.2 µM (inactive)
